- assay-target: 9 of the 22 variants that have the K8L mutation (His-tag proteins)
- experiment: ELISA
pEC50: −log10 of the molar value. Square brackets hold non-standard residues; d marks the D form. Ends that are not written are not given here. * marks the point of attachment. Biotin = O=C1N[C@H]2[C@H](CS[C@H]2CCCCC(=O)*)N1; pY = N[C@@H](Cc1ccc(OP(=O)(O)O)cc1)C(=O)O; Ahx = NCCCCCC(=O)O
attribute-measured: pEC50

INSERT INTO results (binder, attribute_measured, recorded_result) VALUES
  ('{Biotin-Ahx-Ahx}-EPQ[pY]EEIPIYL [biotin-ahx-ahx-EPQpYEEIPIYL]', 'pEC50', '6.30 to 7.68');
